Assay: Intravenous and buccal pharmacokinetic study in the minipig
Format: in vivo
Conditions: male, Göttingen, in vivo, 0.04 mg/kg, buccal 0.040 mg/kg, mean, read-out: Plasma concentration Day 5 Hour 1, Mean
Structures can show the parent of a compound that is named as a salt.
measured.parameter: concentration at 1 h
Please append the unit to your numeric answer.

Which concentration at 1 h value belongs to CCCN1CCC[C@@H]2Cc3c(ccc(O)c3O)C[C@H]21 [compound 10, hydrobromide] ?
10.8 ng/mL

---

Assay: Intravenous and buccal pharmacokinetic study in the minipig
Assay type: in vivo
Conditions: male, Göttingen, in vivo, IV bolus 0.025 mg/kg (as printed in conclusion), read-out: individual apparent terminal elimination half-life
Structures can show the parent of a compound that is named as a salt.
measured.parameter: half-life

Which half-life value belongs to CCCN1CCC[C@@H]2Cc3c(ccc(O)c3O)C[C@H]21 [compound 10, hydrobromide] ?
204 to 258 min

Where do the numbers come from? From patent US20120077836A1.
